test: Mouse hypercalcemia assay
Format: in vivo
measurement.parameters: female DBF mice, oral gavage for 6 days, serum ionized calcium 6 hours after last dosing
property: Mouse Hypercal (µg/kg/day)
Only the number, expressed in µg/kg/day, is required.

Would you please look over these solved cases?
[
  {
    "compound": "CCC(O)(CC)COc1ccc(C(CC)(CC)c2ccc(C(=O)NCC(=O)O)c(C)c2)cc1C [Ex. 3]",
    "test.value": 1000
  },
  {
    "compound": "CCC(CC)(c1ccc(OCC(O)(C(C)C)C(C)C)c(C)c1)c1ccc(C(=O)NCC(=O)O)c(C)c1 [Ex. 4]",
    "test.value": 73000
  },
  {
    "compound": "C=C1/C(=C\\C=C2/CCC[C@]3(C)[C@@H]([C@H](C)CCCC(C)(C)O)CC[C@@H]23)C[C@@H](O)C[C@@H]1O [AA, 1α,25-dihydroxyvitamin D3, reference compound]",
    "test.value": 0.06
  },
  {
    "compound": "CCC(CC)(c1ccc(OCC(=O)C(C)(C)C)c(C)c1)c1ccc(OC[C@H](O)C(C)(C)C)c(C)c1 [EE, reference compound]",
    "test.value": 1000
  }
]

Alright, here's another compound for you.
Ask: Please list Mouse Hypercal recorded for the compound CCC(O)(C#Cc1ccc(C(CC)(CC)c2ccc(C(=O)NC(C)(C)C(=O)O)c(C)c2)cc1C)CC [Ex. 2]
Reply: 300

These measurements were taken from patent US7595345B2.
